Collected pEC50 values appear next to each entry.
Biological target: T1, TNFR2-His (Sino Biological, 10417-H08H, NP_001057.1 Met1-Asp257, with multi-histidine tag expressed on … (human, UniProt P20333 23-257))
T1 construct: range 1-257; Bought protein; also called recombinant human TNFR2 protein; TNFR2-His antigen; not shown: C-terminal multi-histidine tag
T1 sequence (looked up): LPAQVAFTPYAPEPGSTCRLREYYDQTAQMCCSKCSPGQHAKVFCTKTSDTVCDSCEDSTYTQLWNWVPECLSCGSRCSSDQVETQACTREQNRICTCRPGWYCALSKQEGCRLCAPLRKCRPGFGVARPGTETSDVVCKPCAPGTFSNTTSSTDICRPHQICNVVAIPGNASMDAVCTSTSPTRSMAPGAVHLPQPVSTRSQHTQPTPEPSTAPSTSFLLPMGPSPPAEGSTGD
Test: ELISA, coated TNFR2-His
Worth noting: pEC50 values are minus log10 of concentrations stated in mol/L.

Solved cases (4 shown):
11G2huVH3 + huVL2(P07268) (antibody, V domains shown, Humanized 11G2) VH: QVQLVQSGAEVKKPGASVKVSCKASGYTFITYDINWVRQATGQGLEWIGWIYPRDGNTQFNENFQGRVTMTRNTSISTAYMELSSLRSEDTAVYYCARGDRDYGYFDVWGQGTTVTVSS VL: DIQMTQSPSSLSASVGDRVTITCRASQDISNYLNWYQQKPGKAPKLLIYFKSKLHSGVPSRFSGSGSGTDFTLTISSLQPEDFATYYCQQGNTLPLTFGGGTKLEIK; 9.57
33C12huVH3 + huVL3(P07304) (antibody, V domains shown, Humanized 33C12) VH: EVQLVESGGGLVKPGGSLRLSCAASGFTFSDYTMSWVRQAPGKGLEWVATISTGGSYTYYADSVKGRFTISRDNAKNSLYLQMNSLRAEDTAVYYCARDGGYDGDYFDYWGQGTTVTVSS VL: EIVLTQSPATLSLSPGERATLSCRASSSVSSSYLHWYQQKPGQAPRLLIYRTSNLATGIPDRFSGSGSGTDFTLTISRLEPEDFAVYYCQQYSGYPLTFGGGTKLEIK; 9.45
33C12huVH1 + huVL1(P07298) (antibody, V domains shown, Humanized 33C12) VH: DVQLVESGGGLVKPGGSLRLSCAASGFTFSDYTMSWVRQAPGKGLEWVATISTGGSYTYYPDSVKGRFTISRDNAKNTLYLQMSSLRAEDTAVYYCTRDGGYDGDYFDYWGQGTTVTVSS VL: ENVLTQSPATLSLSPGERATMSCRASSSVSSSYLHWYQQKPGQAPRLWIYRTSNLASGVPARFSGSGSGTDYTLTISRVEPEDFAVYYCQQYSGYPLTFGGGTKLEIK; 9.36
11G2huVH4 + huVL3(P07274) (antibody, V domains shown, Humanized 11G2) VH: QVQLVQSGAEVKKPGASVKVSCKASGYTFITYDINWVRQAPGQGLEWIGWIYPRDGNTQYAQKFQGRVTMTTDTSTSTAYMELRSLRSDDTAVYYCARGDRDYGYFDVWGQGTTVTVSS VL: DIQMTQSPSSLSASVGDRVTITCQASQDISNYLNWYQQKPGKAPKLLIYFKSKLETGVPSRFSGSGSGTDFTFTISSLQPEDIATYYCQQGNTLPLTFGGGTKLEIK; 9.30

Consider now this further binder.
-- ask Complete the entry with pEC50 for 33C12huVH2 + huVL3(P07303) (antibody, V domains shown, Humanized 33C12) VH: EVQLVESGGGLVKPGGSLRLSCAASGFTFSDYTMSWVRQAPGKGLEWVATISTGGSYTYYPDSVKGRFTISRDNAKNTLYLQMSSLRAEDTAVYYCARDGGYDGDYFDYWGQGTTVTVSS VL: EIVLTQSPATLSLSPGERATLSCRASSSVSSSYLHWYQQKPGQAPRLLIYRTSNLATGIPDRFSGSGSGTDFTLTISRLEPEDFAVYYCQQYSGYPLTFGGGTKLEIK
-- reply 9.11
